- System: primary acute myeloid leukemia (AML) cells obtained from patients
- METHOD_NOTES: Kinase inhibitor library screening with and without NSC130362, primary AML cells
- Type: cell-based, Human
- CONDITION_NOTES: ratio of EC50 for inhibitor to EC50 for inhibitor/NSC130362 combination; NSC130362 10 μM; Screen N 3
ASSAY_METRIC: EC50 decrease, fold (Screen N 3)
Answer as a quantity: numeral, then unit.

// below: answered molecules
[[record]]
molecule = "COc1cc2nccc(Oc3ccc(NC(=O)C4(C(=O)Nc5ccc(F)cc5)CC4)cc3)c2cc1OC [Cabozantinib (XL-184)]"
assay_value = "0.259 fold"

[[record]]
molecule = "Cc1[nH]c(/C=C2\\C(=O)Nc3ccc(S(=O)(=O)N(C)c4cccc(Cl)c4)cc32)c(C)c1C(=O)N1CCN(C)CC1"
assay_value = "0.000745 fold"

[[record]]
molecule = "Cn1c(Nc2ccc(C(F)(F)F)cc2)nc2cc(Oc3ccnc(-c4ncc(C(F)(F)F)[nH]4)c3)ccc21"
assay_value = "0.0556 fold"


Below: the item to evaluate.
q: Hi! What's the reported EC50 decrease, fold (Screen N 3) for Cn1cc(-c2ccc3nnc(C(F)(F)c4ccc5ncccc5c4)n3n2)cn1 on primary acute myeloid leukemia (AML) cells obtained from patients?
a: 0.00829 fold

Each recorded value in this set is attributed to paper PMC6433232.
